tested on: Pseudomonas aeruginosa; assay: MIC against clinical isolates; assay type: cell-based; conditions: clinical isolate GN 2987; unit assumed
# note: boundary value 10 µg/mL maps to not fulfilled; MIC below it maps to fulfilled

Example entries begin here.
Molecule	Discrete Label
CCN1CCN(C(=O)NC(C(=O)NC2C(=O)N3C(C(=O)O)=C(COC(C)=O)CSC23)c2ccccc2)C(=O)C1=O (centres unmarked) [compound 61]	not fulfilled
CC(=O)OCC1=C(C(=O)O)N2C(=O)[C@@H](NC(=O)Cc3cccs3)[C@H]2SC1 [Sodium Cephalothin, SodiumCephalothin, reference compound]	not fulfilled
CCCCCCCCN1CCN(C(=O)N[C@@H](C(=O)N[C@@H]2C(=O)N3[C@@H]2SC(C)(C)[C@@H]3C(=O)O)c2ccccc2)C(=O)C1=O (single isomer, unassigned) [compound 47]	not fulfilled

Then there is this molecule:
**Query** Determine whether this molecule shows MIC lower than 10 µg/mL (ties excluded): CCCCCCN1CCN(C(=O)N[C@@H](C(=O)N[C@@H]2C(=O)N3[C@@H]2SC(C)(C)[C@@H]3C(=O)O)c2ccccc2)C(=O)C1=O (single isomer, unassigned) [compound 46]
**Result** fulfilled

---

system: Pseudomonas aeruginosa; assay: MIC against clinical isolates; type: cell-based; details: clinical isolate GN 376; unit assumed
Property Measured: MIC

Compound	MIC
CCN1CCN(C(=O)NC(C(=O)NC2C(=O)N3C(C(=O)O)=C(COC(C)=O)CSC23)c2ccccc2)C(=O)C1=O (centres unmarked)	12.5 µg/mL

**Query** Looking for the measured MIC of CN1CCN(C(=O)NC(C(=O)NC2C(=O)N3C(C(=O)O)=C(CSc4nnnn4C)CSC23)c2ccccc2)C(=O)C1=O (single isomer, unassigned) , can you help?
**Result** 50 µg/mL

**Query** Looking for the measured MIC of CC(C)N1CCN(C(=O)N[C@@H](C(=O)N[C@@H]2C(=O)N3[C@@H]2SC(C)(C)[C@@H]3C(=O)O)c2ccccc2)C(=O)C1=O (single isomer, unassigned) , can you help?
**Result** 3.13 µg/mL

**Query** Looking for the measured MIC of CCCCCCN1CCN(C(=O)N[C@@H](C(=O)N[C@@H]2C(=O)N3[C@@H]2SC(C)(C)[C@@H]3C(=O)O)c2ccccc2)C(=O)C1=O (single isomer, unassigned) , can you help?
**Result** 25 µg/mL

**Query** Looking for the measured MIC of CC(=O)N1CCN(C(=O)N[C@@H](C(=O)N[C@@H]2C(=O)N3[C@@H]2SC(C)(C)[C@@H]3C(=O)O)c2ccccc2)C(=O)C1 , can you help?
**Result** 25 µg/mL

**Query** Looking for the measured MIC of CC1(C)S[C@@H]2[C@H](NC(=O)C(C(=O)O)c3ccccc3)C(=O)N2[C@H]1C(=O)O (some centres unmarked) [Sodium Carbenicillin, SodiumCarbenicillin, reference compound] , can you help?
**Result** 50 µg/mL

**Query** Looking for the measured MIC of CCCCN1CCN(C(=O)N[C@@H](C(=O)N[C@@H]2C(=O)N3[C@@H]2SC(C)(C)[C@@H]3C(=O)O)c2ccccc2)C(=O)C1=O (single isomer, unassigned) , can you help?
**Result** 6.25 µg/mL

**Query** Looking for the measured MIC of CC(=O)OCC1=C(C(=O)O)N2C(=O)[C@@H](NC(=O)Cc3cccs3)[C@H]2SC1 [Sodium Cephalothin, SodiumCephalothin, reference compound] , can you help?
**Result** > 200 µg/mL

**Query** Looking for the measured MIC of Cc1nnc(SCC2=C(C(=O)O)N3C(=O)C(NC(=O)C(NC(=O)N4CCN(C)C(=O)C4=O)c4ccccc4)C3SC2)s1 (single isomer, unassigned) , can you help?
**Result** 100 µg/mL

**Query** Looking for the measured MIC of CCN1CCN(C(=O)N[C@@H](C(=O)N[C@@H]2C(=O)N3[C@@H]2SC(C)(C)[C@@H]3C(=O)O)c2ccccc2)CC1=O , can you help?
**Result** 12.5 µg/mL

**Query** Looking for the measured MIC of O=C(Cc1cccs1)N[C@@H]1C(=O)N2C(C(=O)[O-])=C(C[n+]3ccccc3)CS[C@H]12 [Cephalorizine, reference compound] , can you help?
**Result** > 200 µg/mL

---

Measured MIC accompanies every entry in the list below.
tested on: Proteus vulgaris 3027; assay: MIC against standard strain, plate method; type: cell-based; settings: Proteus vulgaris 3027, standard strain; unit assumed
Just the number in µg/mL, nothing appended.

# annotated cases, reported MIC shown
> print(dat)
                                   molecule              tested.on  property.measured  result.units  value.measured
1  CC(C)N1CCN(C(=O)N[C@@H](C(=O)N[C@@H]2C(=O)N3[C@@H]2SC(C)(C)[C@@H]3C(=O)O)c2ccccc2)C(=O)C1=O (single isomer, unassigned)  Proteus vulgaris 3027                MIC         µg/mL             0.4
2  CCCCN1CCN(C(=O)N[C@@H](C(=O)N[C@@H]2C(=O)N3[C@@H]2SC(C)(C)[C@@H]3C(=O)O)c2ccccc2)CC1=O  Proteus vulgaris 3027                MIC         µg/mL            3.13

Could you now look at the following molecule, please?
**Query** Looking for the measured MIC of CCCCCCN1CCN(C(=O)N[C@@H](C(=O)N[C@@H]2C(=O)N3[C@@H]2SC(C)(C)[C@@H]3C(=O)O)c2ccccc2)CC1=O , can you help?
**Result** 3.13

---

Measured MIC accompanies every entry in the list below.
tested on: Pseudomonas aeruginosa; experiment: MIC against clinical isolates; format: cell-based; settings: clinical isolate GN 376; unit assumed

# annotated cases, reported MIC shown
Molecule	Value Measured
CC1(C)S[C@@H]2[C@H](NC(=O)[C@H](N)c3ccccc3)C(=O)N2[C@H]1C(=O)O [Sodium Ampicillin, SodiumAmpicillin, reference compound]	> 200 µg/mL
CC(=O)OCC1=C(C(=O)O)N2C(=O)[C@@H](NC(=O)[C@H](N)c3ccccc3)[C@H]2SC1 [Sodium Cephaloglycin, SodiumCephaloglycin, reference compound]	> 200 µg/mL

Could you now look at the following molecule, please?
**Query** Looking for the measured MIC of Cc1nnc(SCC2=C(C(=O)O)N3C(=O)[C@@H](NC(=O)Cn4cnnn4)[C@H]3SC2)s1 [Sodium Cephazolin, SodiumCephazolin, reference compound] , can you help?
**Result** > 200 µg/mL

---

test system: Proteus vulgaris 3027; test: MIC against standard strain, plate method; type: cell-based; conditions: Proteus vulgaris 3027, standard strain; unit assumed
Property Measured: MIC

# annotated cases, reported MIC shown
Compound	MIC
CCCCCCCCN1CCN(C(=O)N[C@@H](C(=O)N[C@@H]2C(=O)N3[C@@H]2SC(C)(C)[C@@H]3C(=O)O)c2ccccc2)C(=O)C1=O (single isomer, unassigned) [compound 47]	< 1.57 µg/mL
CCCCCCCCN1CCN(C(=O)N[C@@H](C(=O)N[C@@H]2C(=O)N3[C@@H]2SC(C)(C)[C@@H]3C(=O)OCOC)c2ccccc2)C(=O)C1=O (single isomer, unassigned) [compound 51]	< 0.4 µg/mL
CC(=O)OCC1=C(C(=O)O)N2C(=O)[C@@H](NC(=O)[C@H](N)c3ccccc3)[C@H]2SC1 [Sodium Cephaloglycin, SodiumCephaloglycin, reference compound]	< 1.57 µg/mL

**Query** Notebook: pull reported MIC for Proteus vulgaris 3027, entry CCN1CCN(C(=O)NC(C(=O)NC2C(=O)N3C(C(=O)O)=C(CSc4nnnn4C)CSC23)c2ccccc2)C(=O)C1=O (stereo not shown) [compound 69]
**Result** < 0.79 µg/mL

---

test system: Pseudomonas aeruginosa; experiment: MIC against clinical isolates; type: cell-based; details: clinical isolate GN 2565; unit assumed
Measured MIC accompanies every entry in the list below.

# annotated cases, reported MIC shown
> print(dat)
                                   compound               tested.on  property.measured  value.measured
1  CC(=O)OCC1=C(C(=O)O)N2C(=O)[C@@H](NC(=O)Cc3cccs3)[C@H]2SC1 [Sodium Cephalothin, SodiumCephalothin, reference compound]  Pseudomonas aeruginosa                MIC     > 200 µg/mL
2  O=C(Cc1cccs1)N[C@@H]1C(=O)N2C(C(=O)[O-])=C(C[n+]3ccccc3)CS[C@H]12 [Cephalorizine, reference compound]  Pseudomonas aeruginosa                MIC     > 200 µg/mL

Could you now look at the following compound, please?
**Query** Looking for the measured MIC of Cc1nnc(SCC2=C(C(=O)O)N3C(=O)[C@@H](NC(=O)Cn4cnnn4)[C@H]3SC2)s1 [Sodium Cephazolin, SodiumCephazolin, reference compound] , can you help?
**Result** > 200 µg/mL

---

test system: Proteus vulgaris 3027; experiment: MIC against standard strain, plate method; type: cell-based; conditions: Proteus vulgaris 3027, standard strain; unit assumed
Property Measured: MIC (mg/L)
Just the number in mg/L, nothing appended.

> print(dat)
                                   compound              tested.on  result.units  value.measured
1  CC1(C)S[C@@H]2[C@H](NC(=O)[C@H](NC(=O)N3CC(=O)N(C(=O)c4ccccc4)CC3=O)c3ccccc3)C(=O)N2[C@H]1C(=O)O  Proteus vulgaris 3027          mg/L              50
2  CCCCCCCCN1CCN(C(=O)N[C@@H](C(=O)N[C@@H]2C(=O)N3[C@@H]2SC(C)(C)[C@@H]3C(=O)O)c2ccccc2)CC1=O  Proteus vulgaris 3027          mg/L            3.13

Could you now look at the following compound, please?
**Query** Looking for the measured MIC of CCN1CCN(C(=S)NC(C(=O)NC2C(=O)N3C(C(=O)O)=C(COC(C)=O)CSC23)c2ccccc2)C(=O)C1=O (centres unmarked) , can you help?
**Result** 12.5

src = patent US4110327A
